Origin of measurements: the supplement of paper PMC4962491

Consider the following molecules; for each one, report its mitochondrial oxygen consumption rate normalised.
- System: FaDu
- Test Method Notes: mitochondrial oxygen consumption rate normalised to cell number, Z score vs plate DMSO wells; higher = higher oxygen consumption (negative = OCR reduction)
- Measurement Conditions: 10 µM; treatment time 24 h; assay medium: 5 mM glucose, 5 mM pyruvate, 4 mM glutamine

stdin: Return mitochondrial oxygen consumption rate normalised for the following molecule: NS(=O)(=O)c1cc2c(cc1Cl)N=CNS2(=O)=O
stdout: 0.507

stdin: Return mitochondrial oxygen consumption rate normalised for the following molecule: CCCCC(CC)CN=C(N)N=C(N)NCCCCCCNC(N)=NC(N)=NCC(CC)CCCC (stereo unspecified)
stdout: -10.4

stdin: Return value of mitochondrial oxygen consumption rate normalised for input CN(C)c1ccc2nc3ccc(=[N+](C)C)cc-3sc2c1 , no commentary.
stdout: -2.94

stdin: Quick one: give measured mitochondrial oxygen consumption rate normalised for O=[N+]([O-])c1ccc(O)c2ncccc12
stdout: -3.63

stdin: Tell me its mitochondrial oxygen consumption rate normalised given C=CCOC(Cn1ccnc1)c1ccc(Cl)cc1Cl (stereo unspecified) as the entry.
stdout: -0.245

stdin: Give the reported value of mitochondrial oxygen consumption rate normalised for this record: CCCCC(CC)CN1CN(CC(CC)CCCC)CC(C)(N)C1 (stereo unspecified)
stdout: -5.24

---

- Test system: FaDu
- Test Method Notes: mitochondrial oxygen consumption rate normalised to cell number, Z score vs plate DMSO wells; higher = higher oxygen consumption (negative = OCR reduction)
- Measurement Conditions: 2 µM; treatment time 24 h; assay medium: 5 mM glucose, 5 mM pyruvate, 4 mM glutamine
Kindly state mitochondrial oxygen consumption rate normalised for each of the entries shown.
No unit in the answer, only the number.

stdin: Please report mitochondrial oxygen consumption rate normalised with FaDu for item CN(C)CCCN1c2ccccc2CCc2ccccc21 .
stdout: -0.981

stdin: Write mitochondrial oxygen consumption rate normalised of CC(C)(C)CC(C)(C)c1ccc(OCCOCC[N+](C)(C)Cc2ccccc2)cc1 ; system used: FaDu
stdout: -6.66

stdin: State recorded mitochondrial oxygen consumption rate normalised with FaDu, entry CCN(CC)C(=O)c1cccnc1 , no comment.
stdout: -1.02

stdin: Give FaDu mitochondrial oxygen consumption rate normalised for the following molecule: CC[C@@]1(O)C(=O)OCc2c1cc1n(c2=O)Cc2cc3c(CN(C)C)c(O)ccc3nc2-1
stdout: -1.46

stdin: Would you please give the reported mitochondrial oxygen consumption rate normalised of Nc1ccc2cc3ccc(N)cc3nc2c1 with FaDu?
stdout: -2.56

stdin: Report mitochondrial oxygen consumption rate normalised from FaDu testing of COc1cccc2c1C(=O)c1c(O)c3c(c(O)c1C2=O)C[C@@](O)(C(C)=O)C[C@@H]3O[C@H]1C[C@H](N)[C@H](O)[C@H](C)O1
stdout: -6.3

stdin: For FaDu, give the measured mitochondrial oxygen consumption rate normalised of the entry CC(=O)O[C@H]1C[C@@]2(C)[C@@H](C[C@@H](O)[C@H]3[C@@]4(C)CC[C@@H](O)[C@@H](C)[C@@H]4CC[C@@]32C)/C1=C(\CCC=C(C)C)C(=O)O
stdout: 0.0549

---

- Test system: FaDu
- Test Method Notes: mitochondrial oxygen consumption rate normalised to cell number, Z score vs plate DMSO wells; higher = higher oxygen consumption (negative = OCR reduction)
- Measurement Conditions: 0.08 µM; treatment time 24 h; assay medium: 5 mM glucose, 5 mM pyruvate, 4 mM glutamine
Assignment: determine reported mitochondrial oxygen consumption rate normalised for the given compounds.
Give the value as a plain number.

stdin: Give mitochondrial oxygen consumption rate normalised for this entry on FaDu: CC(C)NCC(O)COc1ccc(CC(N)=O)cc1 (stereo unspecified)
stdout: 0.23

stdin: Send back FaDu mitochondrial oxygen consumption rate normalised of Nc1ncn([C@@H]2O[C@H](CO)[C@@H](O)[C@H]2O)c(=O)n1 only.
stdout: -0.369

stdin: GET mitochondrial oxygen consumption rate normalised where system = FaDu and item = c1ccc2c(c1)CCCC2C1=NCCN1 (stereo unspecified)
stdout: -1.42

stdin: State mitochondrial oxygen consumption rate normalised (FaDu) of C=C1CC[C@H](O)C/C1=C/C=C1\CCC[C@]2(C)[C@@H]([C@H](C)/C=C/[C@H](C)C(C)C)CC[C@@H]12 .
stdout: -1.49

stdin: Provide measured mitochondrial oxygen consumption rate normalised on FaDu for CCN(CC)C(=O)c1cccnc1 please.
stdout: 0.606

stdin: System FaDu. Read-out mitochondrial oxygen consumption rate normalised. Item CCCCCCCCCc1ccc(OCCOCCOCCOCCOCCOCCOCCOCCOCCO)cc1 . Report value.
stdout: 0.0515

---

- Test system: FaDu
- Test Method Notes: mitochondrial oxygen consumption rate normalised to cell number, Z score vs plate DMSO wells; higher = higher oxygen consumption (negative = OCR reduction)
- Measurement Conditions: 0.08 µM; treatment time 24 h; assay medium: 5 mM glucose, 5 mM pyruvate, 4 mM glutamine
Can you tell me mitochondrial oxygen consumption rate normalised for the items I'm about to list?
Please respond with just the number, no unit label.

stdin: Given CCCCCCCCCCCCC[N+](C)(C)Cc1ccccc1 , respond with its mitochondrial oxygen consumption rate normalised.
stdout: -1.59

stdin: Using the record for CCCCCC(=O)O[C@]1(C(C)=O)CC[C@H]2[C@@H]3CCC4=CC(=O)CC[C@]4(C)[C@H]3CC[C@@]21C , state its measured mitochondrial oxygen consumption rate normalised.
stdout: 0.448

stdin: Entry CN(C)c1ccc(C(=C2C=CC(=[N+](C)C)C=C2)c2ccc(N(C)C)cc2)cc1 needs its mitochondrial oxygen consumption rate normalised filled in; supply it.
stdout: -0.504

stdin: Supply measured mitochondrial oxygen consumption rate normalised of COc1cccc2c1C(=O)c1c(O)c3c(c(O)c1C2=O)C[C@@](O)(C(C)=O)C[C@@H]3O[C@H]1C[C@H](N)[C@H](O)[C@H](C)O1 in your reply.
stdout: 1.45

stdin: In one line, give reported mitochondrial oxygen consumption rate normalised of the entry C[n+]1c2cc(N)ccc2cc2ccc(N)cc21 .
stdout: 0.662

stdin: Answer with the recorded mitochondrial oxygen consumption rate normalised for the compound listed here: O=c1cc[nH]c(=S)[nH]1
stdout: -0.646

stdin: Answer with the recorded mitochondrial oxygen consumption rate normalised for the compound listed here: CC(=O)O[C@H]1C[C@@]2(C)[C@@H](C[C@@H](O)[C@H]3[C@@]4(C)CC[C@@H](O)[C@@H](C)[C@@H]4CC[C@@]32C)/C1=C(\CCC=C(C)C)C(=O)O
stdout: 0.246

stdin: # return recorded mitochondrial oxygen consumption rate normalised for entry C[C@@H]1O[C@@H](OC[C@H]2O[C@@H](Oc3c(-c4ccc(O)c(O)c4)oc4cc(O)cc(O)c4c3=O)[C@H](O)[C@@H](O)[C@@H]2O)[C@H](O)[C@H](O)[C@H]1O
stdout: 0.0147

stdin: Note down mitochondrial oxygen consumption rate normalised recorded for Cc1cc(C2CCCCC2)n(O)c(=O)c1
stdout: -0.736

stdin: Using the record for CCCCCCCCCCCCCCCCCCCCCCO , state its measured mitochondrial oxygen consumption rate normalised.
stdout: 0.402

stdin: Give mitochondrial oxygen consumption rate normalised for CCOc1ccc2nc3cc(N)ccc3c(N)c2c1
stdout: -0.404

stdin: Tell me measured mitochondrial oxygen consumption rate normalised for CCCCCCCCCCCCCCCC[N+](C)(C)CCN(Cc1ccc(OC)cc1)c1ncccn1 please.
stdout: 0.201

stdin: Find the measured mitochondrial oxygen consumption rate normalised of COc1cc(NS(C)(=O)=O)ccc1Nc1c2ccccc2nc2ccccc12 and report it.
stdout: -0.738

stdin: State its mitochondrial oxygen consumption rate normalised: CNC(=O)c1cc(Oc2ccc(NC(=O)Nc3ccc(Cl)c(C(F)(F)F)c3)cc2)ccn1
stdout: -1.33

stdin: Consider the compound CCCCCCCCNC(C)C(O)c1ccc(SC(C)C)cc1 (stereo unspecified) and give its recorded mitochondrial oxygen consumption rate normalised.
stdout: 0.0353

stdin: Provide one value: measured mitochondrial oxygen consumption rate normalised of Nc1ccc2cc3ccc(N)cc3nc2c1
stdout: 0.988

stdin: Retrieve mitochondrial oxygen consumption rate normalised measured for CC[n+]1c(-c2ccccc2)c2cc(N)ccc2c2ccc(N)cc21 and print it.
stdout: -0.559

stdin: Identify measured mitochondrial oxygen consumption rate normalised corresponding to N=C(NCCCCCCNC(=N)NC(=N)Nc1ccc(Cl)cc1)NC(=N)Nc1ccc(Cl)cc1
stdout: 0.00962

stdin: Retrieve mitochondrial oxygen consumption rate normalised measured for C[n+]1cc2c3c(ccc2c2ccc4cc5c(cc4c21)OCO5)OCO3 and print it.
stdout: 0.385

stdin: Fill in reported mitochondrial oxygen consumption rate normalised for this entry: CCCCCCc1ccc(O)cc1O.Nc1c2ccccc2nc2ccccc12
stdout: -0.393

stdin: Provide one value: measured mitochondrial oxygen consumption rate normalised of S=c1[nH]cnc2nc[nH]c12
stdout: 0.147

---

- Tested on: FaDu;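 further: compound exposure in DMEM (4 mM L-glutamine, 5 mM glucose), antimycin A injected at 2 µM after the basal reading and its residual OCR subtracted from basal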
- Test Method Notes: mitochondrial oxygen consumption rate normalised to cell number, Z score vs plate DMSO wells; higher = higher oxygen consumption (negative = OCR reduction)
- Measurement Conditions: 0.4 µM; treatment time 24 h; assay medium: 5 mM glucose, 5 mM pyruvate, 4 mM glutamine
Readout Name: mitochondrial oxygen consumption rate normalised

stdin: Supply measured mitochondrial oxygen consumption rate normalised of O=C(O[C@H]1CN2CCC1CC2)N1CCc2ccccc2[C@@H]1c1ccccc1 in your reply.
stdout: 0.729

stdin: Note down mitochondrial oxygen consumption rate normalised recorded for N=C(N)NC(=N)NCCc1ccccc1
stdout: 0.605

stdin: Given the compound Nc1nc(Cl)nc2c1ncn2[C@H]1C[C@H](O)[C@@H](CO)O1 , write its reported mitochondrial oxygen consumption rate normalised.
stdout: 1.11

stdin: Supply measured mitochondrial oxygen consumption rate normalised of CC(=O)Oc1ccccc1C(=O)Nc1ncc([N+](=O)[O-])s1 in your reply.
stdout: 1.38

stdin: Please supply the value of reported mitochondrial oxygen consumption rate normalised for the item O=C(Nc1ccc([N+](=O)[O-])cc1Cl)c1cc(Cl)ccc1O
stdout: -0.286

stdin: Determine its reported mitochondrial oxygen consumption rate normalised: CC[n+]1c(-c2ccccc2)c2cc(N)ccc2c2ccc(N)cc21
stdout: -1.04

stdin: Entry CC(C)NCC(O)COc1ccc(CC(N)=O)cc1 (stereo not given) needs its mitochondrial oxygen consumption rate normalised filled in; supply it.
stdout: 0.806

stdin: Give the value of mitochondrial oxygen consumption rate normalised reported for the following: Cc1cc(/C=C/c2ccc3cc(N(C)C)ccc3[n+]2C)c(C)n1-c1ccccc1
stdout: -11.7

stdin: Identify measured mitochondrial oxygen consumption rate normalised corresponding to Cc1ccc2c(Br)cc(Br)c(OC(=O)c3ccccc3)c2n1
stdout: 0.324

stdin: For the compound O=[N+]([O-])c1ccc(O)c2ncccc12 , give its measured mitochondrial oxygen consumption rate normalised value.
stdout: 1.67

stdin: Supply mitochondrial oxygen consumption rate normalised value. Item: COc1cc(NS(C)(=O)=O)ccc1Nc1c2ccccc2nc2ccccc12
stdout: 1.51

stdin: Given CN1[C@@H]2CC[C@H]1C[C@@H](OC(=O)c1c[nH]c3ccccc13)C2 , respond with its mitochondrial oxygen consumption rate normalised.
stdout: 1.48

stdin: Look up mitochondrial oxygen consumption rate normalised of N=C(N)c1ccc(OCCCCCOc2ccc(C(=N)N)cc2)cc1 and report it.
stdout: -0.0335

stdin: Return the recorded mitochondrial oxygen consumption rate normalised value; entry: Cc1cc(C(C)(C)CC(C)(C)C)ccc1OCCOCC[N+](C)(C)Cc1ccccc1
stdout: 0.588

stdin: // fetch mitochondrial oxygen consumption rate normalised given entry C=C1CC[C@H](O)C/C1=C/C=C1\CCC[C@]2(C)[C@@H]([C@H](C)/C=C/[C@H](C)C(C)C)CC[C@@H]12
stdout: -0.211

stdin: Give the reported value of mitochondrial oxygen consumption rate normalised for this record: CN(C)c1ccc(C(=C2C=CC(=[N+](C)C)C=C2)c2ccc(N(C)C)cc2)cc1
stdout: -6.33

stdin: Entry CCN(CC)CCOC(=O)C(c1ccccc1)C1CCCCC1 (stereo not given) needs its mitochondrial oxygen consumption rate normalised filled in; supply it.
stdout: 1.06

stdin: In one line, give reported mitochondrial oxygen consumption rate normalised of the entry CCC(C)n1ncn(-c2ccc(N3CCN(c4ccc(OCC5COC(Cn6cncn6)(c6ccc(Cl)cc6Cl)O5)cc4)CC3)cc2)c1=O (stereo not given) .
stdout: 1.4

stdin: Give mitochondrial oxygen consumption rate normalised for COc1ccc2c(c1)c(CC(=O)O)c(C)n2C(=O)c1ccc(Cl)cc1
stdout: -0.0955

stdin: Provide measured mitochondrial oxygen consumption rate normalised value, entry: CO[C@H]1C[C@H](O[C@H]2[C@H](C)O[C@@H](O[C@@H]3/C(C)=C/C[C@@H]4C[C@@H](C[C@]5(C=C[C@H](C)[C@@H](C6CCCCC6)O5)O4)OC(=O)[C@@H]4C=C(C)[C@@H](O)[C@H]5OC/C(=C\C=C\[C@@H]3C)[C@]54O)C[C@@H]2OC)O[C@@H](C)[C@@H]1O
stdout: 1.33
